# Tested on: HEK-293T
# measurement description: Incucyte cell viability with HEK293T; further: filed as whole numbers so only -1 and 0 and 1 occur
# Type: toxicity, cell-based
# conditions used: human, 12 h, 10 µM, compound concentration 10 uM, replicate number 1, timepoint 12 hours
Provide the reported Growth Rate of each item.
Give bare numbers.

Example entries and their recorded answers appear below.
compound	Growth Rate
CCc1cccc(CC)c1NC(=O)c1nn(C)c2c1CCc1cnc(Nc3ccc(N4CCN(C)CC4)cc3OC)nc1-2	0
FC(F)(F)c1cccc(-c2noc(-c3cc(-c4ccccc4)c(C(F)(F)F)s3)n2)c1	0
C=C(c1ccc(C(=O)O)cc1)c1cc2c(cc1C)C(C)(C)CCC2(C)C	0
NC(=O)c1cccc(-c2cc(Nc3ccc(OC(F)(F)F)cc3)ncn2)c1	0

Need Growth Rate for each of these compounds.
1. O=C(Nc1ccc(Cl)cc1)Nc1cccc(-c2cccc(N3CCCC3)n2)c1
2. O=c1ccn([C@@H]2O[C@H](COP(=O)([O-])OP(=O)([O-])O)[C@@H](O)[C@H]2O)c(=O)[nH]1.[Na+].[Na+]
3. CCn1cc(-c2ccnc3[nH]c(-c4cccc(CN(C)C)c4)cc23)c(-c2ccc(NC(=O)N(C)C)cc2)n1

-- reply
1: 0; 2: 1; 3: 0

---

# Tested on: HEK-293T
# measurement description: Multiplex assay against HEK293T
# Assay type: toxicity, cell-based
# conditions used: human, 12 h, 10 µM, compound concentration 10 uM, replicate 2
experimental readout: Population Hoechst High Intensity Objects (%)
One number for each entry, in %.

smiles	endpoint unit	result number
Cc1cn(-c2cc(NC(=O)c3ccc(C)c(Nc4nccc(-c5cccnc5)n4)c3)cc(C(F)(F)F)c2)cn1	%	3
O=C1N/C(=N/c2ccccc2F)S/C1=C\c1ccc(C(=O)O)cc1	%	3
CCOc1cc(C(=O)N2CCC(N3CCN(C)CC3)CC2)ccc1Nc1ncc2c(n1)N(C1CCCC1)c1ccccc1C(=O)N2C	%	7

Would you kindly look at the next entry?
-- ask Bench note: what Population Hoechst High Intensity Objects (%) did `C=C1/C(=C\C=C2/CCC[C@]3(C)[C@@H]([C@H](C)/C=C/[C@H](C)C(C)C)CC[C@@H]23)C[C@@H](O)C[C@@H]1O` show?
-- reply 3

---

# System: Fibroblast
# measurement description: Incucyte cell viability with human fibroblast; further: filed as whole numbers so only -1 and 0 and 1 occur
# Type: toxicity, cell-based
# conditions used: 24 h, 10 µM, compound concentration 10 uM, replicate number 1, timepoint 24 hours
experimental readout: Growth Rate
Give bare numbers.

Solved entries (count: 4):
molecule	result number
CNC(=O)c1ccccc1Nc1cc(Nc2ccc(N3CCOCC3)cc2OC)ncc1C(F)(F)F	0
CN1CCN(C(=O)C(C)(C)c2ccc(C(=O)Nc3cn4cc(-c5ccncc5)ccc4n3)cc2)CC1	1
O=c1ccn([C@@H]2O[C@H](COP(=O)([O-])OP(=O)([O-])O)[C@@H](O)[C@H]2O)c(=O)[nH]1.[Na+].[Na+]	1
O=C1NC(c2ccccn2)Sc2ccccc21 (stereo not given)	0

Please look at the following molecule next.
-- ask Reported Growth Rate for `CN([C@@H](Cc1ccc(OS(=O)(=O)c2cccc3cnccc23)cc1)C(=O)N1CCN(c2ccccc2)CC1)S(=O)(=O)c1cccc2cnccc12` : what is it?
-- reply 0

---

# System: HEK-293T
# measurement description: Multiplex assay against HEK293T
# Type: toxicity, cell-based
# conditions used: human, 12 h, 10 µM, compound concentration 10 uM, replicate 1
experimental readout: Population Mitochondria Different-Phenotype (%)
Could you write the number and then its unit?

compound	tested on	result
C=C1/C(=C\C=C2/CCC[C@]3(C)[C@@H]([C@H](C)/C=C/[C@H](C)C(C)C)CC[C@@H]23)C[C@@H](O)C[C@@H]1O	HEK-293T	71%

Batch of 5 compounds: report Population Mitochondria Different-Phenotype (%) for each.
1. O=C(Nc1cccnn1)N1CCC(=Cc2cccc(Oc3ccc(C(F)(F)F)cn3)c2)CC1
2. CCCn1c(=O)c2[nH]c(-c3cnn(Cc4cccc(C(F)(F)F)c4)c3)nc2n(CC)c1=O
3. CN1CCC(=C2c3ccccc3CC(=O)c3sccc32)CC1.O=C(O)/C=C/C(=O)O [KETOTIFEN FUMARATE]
4. CCc1cccc(CC)c1NC(=O)c1nn(C)c2c1CCc1cnc(Nc3ccc(N4CCN(C)CC4)cc3OC)nc1-2
5. CCc1cccc(CC)c1NC(=O)c1nn(C)c2c1CCc1cnc(Nc3ccc(C(=O)NC4CCN(C)CC4)cc3OC(F)(F)F)nc1-2

-- reply
1: 4%; 2: 80%; 3: 98%; 4: 12%; 5: 98%

---

# System: U2OS
# measurement description: Multiplex assay against U2OS
# Assay type: toxicity, cell-based
# conditions used: human, 24 h, 1 µM, compound concentration 1 uM, replicate 2
experimental readout: Population Healthy Nuclei (%)
Numbers only, in %.

molecule	Population Healthy Nuclei (%)
Cc1cn(-c2cc(NC(=O)c3ccc(C)c(Nc4nccc(-c5cccnc5)n4)c3)cc(C(F)(F)F)c2)cn1 [NILOTINIB]	79

Return reported Population Healthy Nuclei (%) values for all items listed beneath this line.
1. CCn1cc(-c2ccnc3[nH]c(-c4cccc(CN(C)C)c4)cc23)c(-c2ccc(NC(=O)N(C)C)cc2)n1 [GSK-1070916]
2. O=C(Nc1ccc(-n2nc(-c3cccnc3)cc2C(F)(F)F)cn1)c1ccc(-c2ccccc2)c(F)c1 [BI 2049]

-- reply
1: 83; 2: 83

---

# Tested on: U2OS
# measurement description: Multiplex assay against U2OS
# Type: toxicity, cell-based
# conditions used: human, 24 h, 10 µM, compound concentration 10 uM, replicate 1
Population Healthy Nuclei (%) strictly less than 70% = fulfilled. Otherwise not fulfilled.

Use the examples below as a reference point.
compound	group label
CN(C)C(=O)C(CCN1CCC(O)(c2ccc(Cl)cc2)CC1)(c1ccccc1)c1ccccc1.Cl [LOPERAMIDE HYDROCHLORIDE]	fulfilled
CCCn1c(=O)c2[nH]c(-c3cnn(Cc4cccc(C(F)(F)F)c4)c3)nc2n(CC)c1=O	fulfilled
CCCS(=O)(=O)c1nc(NC2CC2)cc(-c2ccc3c(ccn3C3CC(C)(C)NC(C)(C)C3)c2)n1	fulfilled
Cn1nc(C(=O)NCc2ccc(C(=O)O)cc2)cc1-c1ccc2[nH]ccc2c1	not fulfilled
CCn1c(=O)c(-c2ccc(-c3cncs3)cc2Cl)cc2cnc(Nc3ccc(N4CCN(C)CC4)cc3)nc21	fulfilled
Cc1ccc(C(=O)Nc2cccc(C(F)(F)F)c2)cc1Nc1nc(-c2cccnc2)nc2c1cnn2C	fulfilled

-- ask Please state whether Population Healthy Nuclei (%) is below 70% for `CNc1cc(Oc2cc(C(=O)Nc3cc(N4CCN(C)CC4)cc(C(F)(F)F)c3)ccc2C)ncn1`
-- reply fulfilled

-- ask Is it true that Population Healthy Nuclei (%) reported for `Cc1ccc2nc(NCCN)c3ncc(C)n3c2c1.O=C(O)C(F)(F)F.O=C(O)C(F)(F)F` is less than 70%?
-- reply fulfilled

-- ask is_below(Population Healthy Nuclei (%), 70%) for `COCC(=O)NC/C=C/c1ccc2ncnc(Nc3ccc(Oc4ccc(C)nc4)c(C)c3)c2c1` ?
-- reply fulfilled

-- ask Please state whether Population Healthy Nuclei (%) is below 70% for `CNC(=O)c1ccc(Nc2nc(OC3CCCC3)c3c(-c4ccc5nc(C)oc5c4)c[nH]c3n2)c(OC)c1`
-- reply not fulfilled

---

# Tested on: HEK-293T
# measurement description: Multiplex assay against HEK293T
# Format: toxicity, cell-based
# conditions used: human, 48 h, 1 µM, compound concentration 1 uM, replicate 2
experimental readout: Population Healthy Nuclei (%)
Give bare numbers, in %.

Count: 2. Required value per item: Population Healthy Nuclei (%).
1. S=C(NCCCc1c[nH]cn1)NCCCN(Cc1ccc(Cl)c(Cl)c1)c1ccc(Br)cn1
2. CCc1cccc(CC)c1NC(=O)c1nn(C)c2c1CCc1cnc(Nc3ccc(C(=O)NC4CCN(C)CC4)cc3OC(F)(F)F)nc1-2

-- reply
26
69

Okay, here is my list. What is Population Healthy Nuclei (%) for each of these?
1. CN1CCC(=C2c3ccccc3CC(=O)c3sccc32)CC1.O=C(O)/C=C/C(=O)O [KETOTIFEN FUMARATE]
2. CCN1CCN(Cc2ccc(Nc3ncc(F)c(-c4cc(F)c5nc(C)n(C(C)C)c5c4)n3)nc2)CC1.CS(=O)(=O)O
3. O=C(Nc1ccc(Cl)cc1)Nc1cccc(-c2cccc(N3CCCC3)n2)c1
4. COc1cc(N2CCN(C)CC2)ccc1Nc1ncc2c(n1)N(C)c1ccccc1C(=O)N2C
5. CN1C2CCC1CC(OC(c1ccc(F)cc1)c1ccc(F)cc1)C2.Cl (stereo not drawn)
6. CCn1c(=O)c(-c2ccc(-c3cncs3)cc2Cl)cc2cnc(Nc3ccc(N4CCN(C)CC4)cc3)nc21

-- reply
1: 79; 2: 65; 3: 82; 4: 72; 5: 77; 6: 80

Dear colleague, could you please provide Population Healthy Nuclei (%) for the compounds listed below?
1. CCOc1cc2ncc(C#N)c(Nc3ccc(OCc4ccccn4)c(Cl)c3)c2cc1NC(=O)/C=C/CN(C)C [NERATINIB]
2. C=C1/C(=C\C=C2/CCC[C@]3(C)[C@@H]([C@H](C)/C=C/[C@H](C)C(C)C)CC[C@@H]23)C[C@@H](O)C[C@@H]1O [DOXERCALCIFEROL]

-- reply
62
81

Take each entry in turn and give its Population Healthy Nuclei (%).
1. CCOC(=O)c1c(C)[nH]c2ccc3c(c12)CN1CCc2cc(OC)ccc2C1O3 (stereo not drawn)
2. O=C(Nc1ccc(-n2nc(-c3cccnc3)cc2C(F)(F)F)cn1)c1ccc(-c2ccccc2)c(F)c1 [BI 2049]

-- reply
[72, 83]

-- ask If you can, please state the reported Population Healthy Nuclei (%) value of O=C1NC(=O)C(c2cnc3ccccn23)=C1c1cn2c3c(cc(F)cc13)CN(C(=O)N1CCCCC1)CC2 [LY-2090314] .
-- reply 68
